# Test system: BT-549 breast
# ASSAY_SUMMARY: NCI-60 one-dose screen, 48 h (100 = growth as untreated, 0 = no growth, -100 = all killed)
# TEST_CONDITIONS: 10 µM
# Method: Growth inhibition of the BT-549 human tumor cell line is measured as a screen for anti-cancer activity. Cells are grown in 96 well plates and exposed to the test compound for 48 hours. Compounds are tested at a single concentration, which is 10^-5 M for most compounds. The reported endpoint is percent growth (GI% or GIPRCNT), where numbers from 0 - 100% represent growth inhibition, and numbers from -100% - 0 represent cell death. For example, a value of 40 represents 60% growth inhibition. […]
The panel holds about 83,000 compounds, 20% with a hit somewhere; the sample as a whole holds those more often.
Doc: threshold 90% (exclusive). Items with growth beneath it return yes; others return no.

{"COMPOUND": "CS(=O)(=O)OC1CC(n2ccc(=O)[nH]c2=O)OC1COC(c1ccccc1)(c1ccccc1)c1ccccc1 (stereo unspecified)", "CLASSIFICATION": "no"}
{"COMPOUND": "CCCCCC(C)c1ccc(O)c(C)c1 (stereo unspecified)", "CLASSIFICATION": "no"}
{"COMPOUND": "CCO/C=C1\\SC(=S)N(c2cccc(O)c2)C1=O", "CLASSIFICATION": "no"}
{"COMPOUND": "CCC(C)(C)c1cc(O)c(C(C)(C)CC)cc1O", "CLASSIFICATION": "yes"}
{"COMPOUND": "NNc1c2ccccc2nc2ccccc12", "CLASSIFICATION": "yes"}
{"COMPOUND": "O=c1ccn(C2CC(O)C(COC(c3ccccc3)(c3ccccc3)c3ccccc3)O2)c(=O)[nH]1 (stereo unspecified)", "CLASSIFICATION": "yes"}

Task item: Does `NNc1ccc2ccccc2c1` have growth strictly under 90%?
Reply: no

Task item: Next compound up: `O=C(O)COc1ccc(OCC(=O)O)cc1`
Reply: yes

Task item: Next compound up: CCCCCCCCCCCCCCCCCCOCC(COP(=O)([O-])OCC[N+](C)(C)C)OC (stereo unspecified)
Reply: no

Task item: Next compound up: `Clc1cc(Cl)c(Cl)nn1`
Reply: yes

Task item: Next compound up: `NC(=O)SCC(=O)NNc1ccccc1`
Reply: no

* * *

# Tested on: RXF 393 renal
# ASSAY_SUMMARY: NCI-60 one-dose screen, 48 h (100 = growth as untreated, 0 = no growth, -100 = all killed)
# TEST_CONDITIONS: 10 µM unless noted
This is part of a sample that, as a whole, favours compounds with a hit. Of some 83,000 tested, about 20% had one in any assay. Calls of active or inactive are those of the source. How the source made its calls: active means growth percent below 10; inactive means the rest.
QUANTITY: growth

Past entries and their recorded results:
{"COMPOUND": "O=C1C=CC(=CC=C2C=CN(CCCCCCCCCCCO)C=C2)C=C1", "growth": "69.2% (inactive)"}
{"COMPOUND": "CCCCCCCCCCCC[N+](C)(C)Cc1ccccc1", "growth": "-38.7% (active)"}
{"COMPOUND": "NC1=C(Cl)C(=O)c2ccccc2C1=O", "growth": "103% (inactive)"}

For each listed entry, give its growth.
1. O=C(/C=C/c1cccnc1)c1ccccc1
2. COc1c(O)cc2oc3cc(O)c(CC=C(C)C)c(O)c3c(=O)c2c1CC=C(C)C
3. Clc1ccc(/C=C/c2ccccn2)c(Cl)c1

Reply:
["112% (inactive)", "83% (inactive)", "108% (inactive)"]

* * *

# Tested on: COLO 205 colon
# ASSAY_SUMMARY: NCI-60 one-dose screen, 48 h
# TEST_CONDITIONS: 10 µM
This is part of a sample that, as a whole, favours compounds with a hit. Of some 83,000 tested, about 20% had one in any assay. Activity calls are given as the source filed them. How the source made its calls: active means growth percent below 10; inactive means the rest.
Returns: one label drawn from YES (active), NO (inactive)

Please review the entries below; each comes with its answer.
{"COMPOUND": "Cc1nc(N=C(N)N)nc2ccc3ccccc3c12", "CLASSIFICATION": "YES"}
{"COMPOUND": "O=C1C=C(O)c2ccccc2C1=O.[Ag]", "CLASSIFICATION": "NO"}
{"COMPOUND": "Clc1ccc(/C=C/c2ccccn2)c(Cl)c1", "CLASSIFICATION": "NO"}
{"COMPOUND": "COc1cccc2c1C(=O)c1c(O)c3c(c(O)c1C2=O)C[C@@](O)(C(=O)CO)C[C@@H]3OC1CC(N)C(O)C(C)O1 (stereo partly specified)", "CLASSIFICATION": "YES"}
{"COMPOUND": "CCC(C)(C)c1cc(O)c(C(C)(C)CC)cc1O", "CLASSIFICATION": "NO"}

Task item: # outcome recorded in this test, key = `CCCCCCCCCCSC(=N)N`
Reply: YES

Task item: Next compound up: `N=S(c1ccccc1[N+](=O)[O-])c1ccccc1[N+](=O)[O-]`
Reply: YES

Task item: Next compound up: OCC(O)C(O)C(O)C(/C=N/Nc1ccccc1)=N/Nc1ccccc1 (stereo unspecified)
Reply: NO

Task item: Next compound up: COC(=O)C1C(O)C(C)C(O)C(C)C=C(C)C2=C3C(=C(C)C(=O)c4c(O)c(c(C)c(OC(C)=O)c43)NC(=O)C(C)=C/C=C\C(C)C(O)C(C)C1O)OCO2 (stereo unspecified)
Reply: NO

Task item: Next compound up: `CN1CCN(CCCN2c3ccccc3Sc3ccc(C(F)(F)F)cc32)CC1`
Reply: YES

Task item: Next compound up: COC1OCC(O)C(O)C1O (stereo unspecified)
Reply: NO

* * *

# Test system: MALME-3M melanoma
# ASSAY_SUMMARY: NCI-60 one-dose screen, 48 h (100 = growth as untreated, 0 = no growth, -100 = all killed)
# TEST_CONDITIONS: 10 µM
This is part of a sample that, as a whole, favours compounds with a hit. Of some 83,000 tested, about 20% had one in any assay.
Doc: threshold 90% (exclusive). Items with growth beneath it return Yes; others return No.

Task item: Does OCC(O)C(O)C(O)C(/C=N/Nc1ccccc1)=N/Nc1ccccc1 (stereo not given) have growth strictly under 90%?
Reply: No

Task item: Next compound up: COC1OCC(O)C(O)C1O (stereo not given)
Reply: No

Task item: Next compound up: `CN1CCN(CCCN2c3ccccc3Sc3ccc(C(F)(F)F)cc32)CC1`
Reply: Yes

Task item: Next compound up: `COc1ccc(CC(=O)c2ccc(O)cc2O)cc1`
Reply: No

Task item: Next compound up: `Oc1ccc(N=Nc2ccccn2)c(O)c1`
Reply: Yes

Task item: Next compound up: `CC(C)(C)CC(C)(C)c1ccc(OCCO)cc1`
Reply: No

Task item: Next compound up: CC(=O)OCC(OC(C)=O)C(OC(C)=O)C(OC(C)=O)C(OC(C)=O)C(/C=N/Nc1ccccc1)=N/Nc1ccccc1 (stereo not given)
Reply: Yes

Task item: Next compound up: `CC[N+](CC)=c1ccc2nc3c(cc(N)c4ccccc43)oc-2c1`
Reply: Yes

* * *

# Tested on: HOP-92 NSCLC
# ASSAY_SUMMARY: NCI-60 one-dose screen, 48 h (100 = growth as untreated, 0 = no growth, -100 = all killed)
# TEST_CONDITIONS: 10 µM
This is part of a sample that, as a whole, favours compounds with a hit. Of some 83,000 tested, about 20% had one in any assay.
QUANTITY: growth (%)
Give bare numbers, in %.

For each listed entry, give its growth.
1. COc1ccc(CC(=O)c2ccc(O)cc2O)cc1
2. O=C1C=CC(=CC=C2C=CN(CCCCCCCCCCCO)C=C2)C=C1
3. COC1OCC(O)C(O)C1O (configuration not stated)
4. CC[N+](CC)=c1ccc2nc3c(cc(N)c4ccccc43)oc-2c1
5. NC1=C(Cl)C(=O)c2ccccc2C1=O
6. COc1cccc2c1C(=O)c1c(O)c3c(c(O)c1C2=O)C[C@@](O)(C(C)=O)C[C@@H]3OC1CC(N)C(O)C(C)O1 (some centres not stated)

Reply:
1: 94.4; 2: 24; 3: 103; 4: -60.3; 5: 96.8; 6: -25.2

* * *

# Test system: HT29 colon
# ASSAY_SUMMARY: NCI-60 one-dose screen, 48 h (100 = growth as untreated, 0 = no growth, -100 = all killed)
# TEST_CONDITIONS: 10 µM
This is part of a sample that, as a whole, favours compounds with a hit. Of some 83,000 tested, about 20% had one in any assay.
Decision: growth compared against 80%; not below it gives Criterion met, below it gives Criterion not met.

Please review the entries below; each comes with its answer.
{"MOLECULE": "Oc1ccc(N=Nc2ccccn2)c(O)c1", "CLASSIFICATION": "Criterion not met"}
{"MOLECULE": "CCCCCCCCCCCC[N+](C)(C)Cc1ccccc1", "CLASSIFICATION": "Criterion not met"}
{"MOLECULE": "Clc1ccc(/C=C/c2ccccn2)c(Cl)c1", "CLASSIFICATION": "Criterion met"}
{"MOLECULE": "CCN(CC)c1ccc(NC(C(=O)c2ccccc2)c2ccccc2)cc1 (stereo not given)", "CLASSIFICATION": "Criterion not met"}

Task item: Decide: growth of `CC1=CC(C)=Nc2ccc(Cl)cc2N1` >= 80%?
Reply: Criterion met

Data origin: PubChem BioAssay (NCI)
